Target: recombinant human M2 muscarinic acetylcholine receptor (Homo sapiens, UniProt P08172)
Sequence (P08172 whole entry): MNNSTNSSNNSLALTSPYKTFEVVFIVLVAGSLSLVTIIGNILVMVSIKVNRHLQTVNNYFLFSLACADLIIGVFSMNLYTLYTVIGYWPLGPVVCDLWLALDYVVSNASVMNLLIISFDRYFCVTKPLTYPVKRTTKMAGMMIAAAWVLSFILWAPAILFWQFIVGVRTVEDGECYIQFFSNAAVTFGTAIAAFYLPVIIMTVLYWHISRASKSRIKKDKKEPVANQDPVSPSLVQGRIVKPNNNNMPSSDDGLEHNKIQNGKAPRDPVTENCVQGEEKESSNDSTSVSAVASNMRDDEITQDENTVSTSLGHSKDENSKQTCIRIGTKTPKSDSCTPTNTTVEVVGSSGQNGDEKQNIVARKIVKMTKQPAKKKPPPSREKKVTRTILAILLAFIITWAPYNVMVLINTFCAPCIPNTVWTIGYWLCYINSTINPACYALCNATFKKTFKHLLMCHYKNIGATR
Assay: Muscarinic receptor binding assay, M2
Details: 3H-N-Methylscopolamine 0.8 nM, CHO membranes
measured.attribute: Ki (nM)

COCCOCCOCCOCCOCCOCCOCCN(C)CCC=C1c2ccccc2CCc2ccccc21 [mPEG7-N-Amitriptyline]: 1140
COCCOCCOCCOCCOCCOCCN(C)CCC=C1c2ccccc2CCc2ccccc21 [mPEG6-N-Amitriptyline]: 1170

----------
Biological target: recombinant human M1 muscarinic acetylcholine receptor (Homo sapiens, UniProt P11229)
Construct: expressed in transfected cells; host or cells: CHO cells (membranes)
Sequence (P11229 whole entry): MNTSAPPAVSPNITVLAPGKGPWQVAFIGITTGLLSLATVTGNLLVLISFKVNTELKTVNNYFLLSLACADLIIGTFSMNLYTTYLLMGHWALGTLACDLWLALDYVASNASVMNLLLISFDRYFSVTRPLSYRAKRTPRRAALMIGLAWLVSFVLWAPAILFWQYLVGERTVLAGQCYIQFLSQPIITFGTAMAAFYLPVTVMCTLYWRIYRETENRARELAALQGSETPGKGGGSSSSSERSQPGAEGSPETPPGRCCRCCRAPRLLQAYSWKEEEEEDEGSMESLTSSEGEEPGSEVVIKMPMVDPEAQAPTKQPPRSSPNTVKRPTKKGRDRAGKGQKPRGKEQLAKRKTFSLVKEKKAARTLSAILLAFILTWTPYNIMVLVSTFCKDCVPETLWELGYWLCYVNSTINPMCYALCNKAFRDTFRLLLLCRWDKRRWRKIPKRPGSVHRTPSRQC
Test: Muscarinic receptor binding assay, M1
Conditions: 3H-N-Methylscopolamine 0.8 nM, CHO membranes
measured.attribute: pKi
Convention used: pKi is expressed as -log10 of the molar concentration.

Annotate the molecule "COCCOCCOCCOCCOCCOCCN(C)CCC=C1c2ccccc2CCc2ccccc21" with its measured pKi.
6.06

These measurements were taken from patent US8569380B2.
